- ASSAY_SUMMARY: yeast display, Sf9 membrane polyspecificity reagent, FACS + sequencing; frameworks hold sequencing errors

RESIDUE_CODES	polyreactivity (PSR sort gate)
QVQLVESGGGLVQAGGSLRLSCAPSGNIFGYYVMAWYRQAPGTERELVAAITWSAGTTNYADSVKGRFTISRDNAKNTVYLQMNSLKPEDTAVYYFAVTWWYQDYDLTWYLYDYWGQGTEVTVSS	low polyreactivity
QVQLVESGGGLVQAGGSLRLSCAASGRTFGFYAMGWYRQAPGKERELVAAIRGSIGNTYYADSVKGRFTISRDNAKNTVYLQMNSLKPEDTAVYYCAKAIRYPSAKFYWGQGTQVTVSS	high polyreactivity
QVQVVESGGGLVQAGGSLRLRCAASGSIIKYYAMGWYREAPGKERELVADISWRGGRTYADSVKGRFTISRDNAKNTVYLQMNCLIPEDTAVYYCAKPSKARGGYDYWGQGTQVTVSS	high polyreactivity
QVQLVESGGGLVQAGGSLRLSCAASGYIFRSYAMGWYRQAPGKERELVAAITRSGGSTYYADSVKGRFTISRDNAKNTVYLQMNSLKPEDTAVYYCAVLPRGSNGMDYWGQGTQVTVSS	low polyreactivity
QVQLVDSGGGLVQAGGSLRLSCAASGRTFLFNSMGWYRQATGKQRELVAGITWSSGSTYYADSVKGRITISRDNAKNTVYLQMNSLKPEDTAVYYCAAYHFHDNDYWGQGTQVTVSS	low polyreactivity
QVQLVESGGGLVQAGGSLRLSCAASGSTLRPYAMGWYRQAPGKERELVAAISKSGASTYYADSVKGRVTISRDNANNTVYFQMNSLKPEDTAVNYCNAGRGTWETLYGYDYWGQGTQVTVSS	high polyreactivity
QVQLVESGGGLVQAGGSLRLSCAASGSIFKRYTMGWYRQAPGKERELVASIRSRAGNTYYADSVKGRFTISRDNAKNTVYLQMNSLKPEDTAVYYCAVSAWGYYRTSYGYWGQGTQVTVSS	high polyreactivity
QVQLVESGGGLVQAGGSLRLSCAASGNTFSSNAMGWYRQAPGKERELVAAISWSGGRTYYADSVKGRFTISRDNAKNTVYLQMNSLKPEDTAVYYCAAALGRRRTGYDYWGQGTQVTVSS	high polyreactivity
QVQLVESGGGLVQAGGSLRLSCAASGFIFEPNAMGWYRQAPGKERELVAAISWSGGSTYYADSVKGRFTISRDNAKNTVYLQMNSLKPEDTAVYYCNAAVRGVGELDYWGQGTQVTVSS	high polyreactivity
QVQLVESGGGLVQAGGSLRLSCAASGSTSQYYAMGWYRQAPGKERELVAVISWSGGSTYYADSVKARFTISRDNAKNTVYLEMNSLKPEDTAVYYCAARYRRRVIATRDYWGQGTQVTVSS	high polyreactivity
QVQLVESGGGLVQAGGSLRLSCAASGRIFSSYVMGWYRQAPGKERELVAAIRWSGGSTYYADSVKGRFTISRDNAKNTVYLQMNSLKPEDTAVYYCAAVVYRYYATGYGYWGQGTQVTVSS	high polyreactivity
QVQLVESGGGLVQAGGSLRLSCAASGIFTYNAMGWYRQAPGKERELVASITRGGSTNYADSVKGRFTISLDNAKNTVYLQRNSLKPEDTAVYYCAARVRVYSGWLYNYWGQGTQVTVSS	high polyreactivity
QVQLVESGGGLVQAGGSLRLSCAASGFTLKRYAMGWYRQAPGKERELVAAISTGGSTYYADSVKGRFTISRDNAKNTVYLQMNSLKPEDTAVYYCAAKRYNRLRSYRYSDREDYWGQGTQVTVSS	high polyreactivity
QVQLEESGGGLVQAGGSLRLSCAASGSIFDSYARGWNSQAPVQERELVAAISRSGGRTYYADSVKGRFTISRDNAKNTVYLQMNSLKPEDTAVYYCNVVLGWWAPYFYTSGDYWGQGTQVTVSS	high polyreactivity
QVQLVESGGGLVQAGGSLRLSCAASGSIFDLNAMGWYRQAPGKERELVAAISKSGGSTYYADSVKGRFTISRDNAKNTVYLQMISLKPEDSAVYYCAARYHYPGNWYNYWGQGTQVTVSS	low polyreactivity
QDQLVESGGGLVQAGGSLRLSCAASGIIFSIYAMGWYRQAPGKERELVAVISRSSGSTYYADSVKGRFTISRDNAKNSVYLQMNSLKPEDTAVYYCAARKNRAYGYWGQGTQVTVSS	high polyreactivity
QVQRVESGGGLVQAGGSLRLSCAASGSTFYRYAMVWYRQAPGKERELVATISGGGRTNYADSVKGRFTISRDNAKNTVYLQMNSLKPEDTAVYYCAVDSSSPYDYWGQGTQVTVSS	high polyreactivity
QVQLVESGGGLVQAGGSLRLSCAASGLIFGGNAMGWYRQAPGKERELVAAITYRTGSTYYADSVKGRFTISRDNAKITVYLQMNSLKPEDTAVYDCAAAVSLGYPVAFYYWGQGTQVTVSS	low polyreactivity
QVQLVESGGGLVQAGGSLRLSCAASGSTFTRYAMGWYRQAPGKERELVAAISLSGGDTYYADSVKGRFTISRDNAKNTVYLQMNSLKPEDTAVYYCAARWGYRGYSYEYWGQGTQVTVSS	high polyreactivity
QDQLVESGGGLVQAGGSLRLSCAASAFTFGRNAKGWYRQATGKERELVATITWSGGSTYYADSVKGRFTISRDNAKNTVYLQMNSLKPEDTAVYYCAKQRRYWGQPSRAYEFNYWGQGTQVTVSS	high polyreactivity
QVHVVESGGGLVQAGGSLRLSCAASGRTFYGYAMGWYRQAPGKERELVAGITSGGNTNYADSVKGRFTISRDNAKNTVYLQMNSLKPEDTAVYYCAADRYSFRGDYYWGQGTQVTVSS	low polyreactivity
